Collected pIC50 values appear next to each entry.
target: Cbl-b (Homo sapiens, UniProt Q13191); assay: Cbl-b activity assay (Cbl-b inhibition assay), TR-FRET of Cbl-b interaction with UbcH5B-Ub; format: biochemical; conditions: assay buffer with 100 mM NaCl, 60 nM Src kinase; read-out: Cbl-b activity IC50
Sequence (Q13191 36-427): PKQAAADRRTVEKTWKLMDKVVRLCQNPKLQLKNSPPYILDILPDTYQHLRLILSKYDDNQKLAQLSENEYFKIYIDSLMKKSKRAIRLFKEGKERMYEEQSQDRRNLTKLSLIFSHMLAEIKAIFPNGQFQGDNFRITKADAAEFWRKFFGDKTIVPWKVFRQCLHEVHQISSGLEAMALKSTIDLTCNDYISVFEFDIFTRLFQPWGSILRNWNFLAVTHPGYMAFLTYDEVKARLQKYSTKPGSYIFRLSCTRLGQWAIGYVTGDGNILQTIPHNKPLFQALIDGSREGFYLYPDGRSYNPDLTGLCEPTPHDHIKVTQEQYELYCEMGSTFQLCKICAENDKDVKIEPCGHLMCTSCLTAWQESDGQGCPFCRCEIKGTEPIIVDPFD
pIC50: −log10 of the molar value.

If you can, please state the reported pIC50 value of Cn1cnnc1CC1(c2cccc(N3Cc4c(cc(CC5CCCO5)cc4C(F)(F)F)C3=O)c2)COC1 (stereo not drawn) .
> 7.00

Would you mind doing CC(c1cc2c(c(C(F)(F)F)c1)CN(c1cccc(C3(C(F)(F)c4nncn4C)COC3)c1)C2=O)N1CC[C@H](F)C1 (stereo partly drawn) as well?
> 7.00

Moving on to the next compound.
If you can, please state the reported pIC50 value of Cn1cnnc1C[C@]1(c2cccc(N3Cc4c(cc(CN5CCC6(CC6)C5)cc4C(F)(F)F)C3=O)c2)CCOC1 (single isomer, unassigned) [Compound 517b] .
> 7.00

* * *

biological target: Cbl-b (Homo sapiens); experiment: Cbl-b inhibition assay (Cbl-b activity assay, FRET, Biological Example 1; 100 mM NaCl, 60 nM Src kinase); format: biochemical; conditions: upper bound stated in text lists; read-out: IC50 values in the Cbl-b inhibition assay of Biological Example 1
Structures can show the parent of a compound that is named as a salt.
measurement_type: IC50

If you can, please state the reported IC50 value of C[C@H](Sc1nncn1C)c1cccc(NC(=O)c2cc3cc(OCC(=O)NCCN)ccc3cn2)c1 [Compound 311, hydrochloride] .
≤ 300 nM

New cases:
If you can, please state the reported IC50 value of C[C@H](Sc1nncn1C)c1cccc(NC(=O)c2cc(C(=O)N3CC[C@@H](O)C3)ccn2)c1 [Compound 139] .
≤ 10000 nM

Would you mind doing C[C@H](Cc1nncn1C)c1cc(N[C@@H]2CCOC2)nc(N2Cc3c(cccc3C(F)(F)F)C2=O)c1 (stereo in doubt) [Compound 362] as well?
≤ 300 nM

* * *

Collected fold induction at 0.3 µM values appear next to each entry.
tested on: T-cell; test: CD25 cell surface staining on T-cells co-stimulated with anti-CD3 and anti-CD28 antibody (Biological Example 2); assay type: cell-based, human; conditions: Homo sapiens, T-cell, fold change over baseline; 0.3 μM Cbl-b inhibitor; primary human total T-cells; read-out: CD25 staining Anti-CD3/Anti-CD28 stimulation

If you can, please state the reported fold induction at 0.3 µM value of Cc1cc(C(=O)Nc2cccc(C3(Cc4nncn4C)COC3)c2)nc(C2CCC2)n1 [Compound 340] .
1.01 to 1.3

New cases:
If you can, please state the reported fold induction at 0.3 µM value of C[C@H](Cc1nncn1C)c1cccc(NC(=O)c2cc(C(F)(F)F)n[nH]2)c1 [Compound 314] .
1.01 to 1.3

Would you mind doing Cn1cnnc1CC1(c2cccc(NC(=O)c3nc4c(C(F)(F)F)cccc4[nH]3)c2)COC1 [Compound 335] as well?
1.31 to 1.5

* * *

Collected IC50 values appear next to each entry.
target: Cbl-b (Homo sapiens); test: Cbl-b activity assay (Cbl-b inhibition assay), TR-FRET of Cbl-b interaction with UbcH5B-Ub; assay type: biochemical; conditions: assay buffer with 100 mM NaCl, 60 nM Src kinase; read-out: Cbl-b activity IC50

If you can, please state the reported IC50 value of Cc1ccc(C(=O)Nc2cccc([C@H](C)Sc3nncn3C)c2)nc1C1CC1 .
< 100 nM

Would you mind doing C[C@H](Cc1nncn1C)c1cccc(N2Cc3c(cc([C@H](C)N4CC(O)C4)cc3C(F)(F)F)C2=O)c1 as well?
< 100 nM

Would you mind doing C[C@H](Cc1nncn1C)c1cccc(NC(=O)c2cc(C(=O)N3C[C@@H](F)[C@@H](O)C3)ccn2)c1 as well?
1000 to 3000 nM

Moving on to the next compound.
If you can, please state the reported IC50 value of Cn1cnnc1CC1(c2cccc(N3Cc4c(cc(CN5CCC6CC6C5)cc4C(F)(F)F)C3=O)c2)COC1 (stereo not shown) .
< 100 nM
